test: probe aInhba binding on compound microarray – biochemical, small-molecule microarray, 635/667 nm fluorescence, primary screen (AID 1148); settings: higher = more signal;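 further: score merges 667nm spot fluorescence with signal-to-noise for antibody binding to printed compounds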
value_kind: composite z-score

# input compound: CN(C)CCCNC(=O)[C@@]1(Cc2ccccc2I)c2ccccc2C(=O)N(Cc2ccccc2Cl)[C@H]1c1ccc(CO)cc1 ; wanted: its composite z-score
0.397

# input compound: C[C@]12C(=O)N(CCCCCO)[C@@H]3C(=O)N(c4ccc(Cl)cc4)CC=CC31O[C@@H]1/C=C\CCCOC(=O)C12 (stereo partly drawn) ; wanted: its composite z-score
-0.179

# input compound: C=CCC(OC(C)=O)[C@@H]1[C@@H](N(Cc2cc3ccccc3o2)C(=O)Cc2ccc(OC)cc2)c2cc(OCCCO)ccc2N1C(=O)c1ccc(-c2ccccc2)cc1 (stereo partly drawn) ; wanted: its composite z-score
0.105

# input compound: O=C1O[C@@H](c2ccccc2)[C@@H](c2ccccc2)N2[C@@H](c3ccc(O)cc3)[C@]3(C(=O)Nc4ccc(C#CC5(O)CCCCCC5)cc43)[C@@H](C(=O)N3CCN(c4ncccn4)CC3)[C@H]12 ; wanted: its composite z-score
-0.144

# input compound: C=C(C(=O)CC[C@H](OC(=O)c1cccnc1)c1ccc(OCCO)cc1)C(C)C ; wanted: its composite z-score
-0.0857

# input compound: CC(=O)NCCCC[C@@H]1NC(=O)[C@H]2C[C@@H](C(=O)NCCCCCN)[C@@H](c3cccc(OCCO)c3)N2C1=O ; wanted: its composite z-score
-0.102

# input compound: COc1ccccc1CN1C(=O)c2ccccc2[C@@H](C(=O)NCC(C)C)[C@@H]1c1ccc(CO)cc1 ; wanted: its composite z-score
-0.145

# input compound: C=CC[C@]1(C(=O)N(C)C)N=C(c2ccc(OCCCO)cc2)O[C@H]1c1ccccc1 ; wanted: its composite z-score
0.0471
